Data origin: ChEMBL document CHEMBL3988442

- System Tested: Tyrosyl-tRNA synthetase, putative (Trypanosoma cruzi (strain CL Brener))
- Experimental Details: Trypanosoma cruzi tyrosyl tRNA synthetase (TcYRS) SOP
- Assay type: functional
- Design: scale not given: direction of the effect not stated beside the values
- Measurement Setup: 30 µM
# Percent Effect per entry
Endpoint Name: Percent Effect (%)

compound="Cc1noc(C)c1-c1cccc(CC2CCN(C(=O)c3cc[nH]n3)C2)n1 (configuration not stated)" system_tested="Tyrosyl-tRNA synthetase, putative (Trypanosoma cruzi (strain CL Brener))" endpoint_name="Percent Effect" endpoint_result=8.97
compound=CCc1ncnc2c1CCN(C(=O)N1CCCC1)CC2 system_tested="Tyrosyl-tRNA synthetase, putative (Trypanosoma cruzi (strain CL Brener))" endpoint_name="Percent Effect" endpoint_result=-5
compound=CC(C)Oc1ncnc2c1CCN(C(=O)c1cccn1C)CC2 system_tested="Tyrosyl-tRNA synthetase, putative (Trypanosoma cruzi (strain CL Brener))" endpoint_name="Percent Effect" endpoint_result=8.97
compound="Cc1nn(C)c(N(C)C)c1CNC1CCc2c(F)cccc21 (configuration not stated)" system_tested="Tyrosyl-tRNA synthetase, putative (Trypanosoma cruzi (strain CL Brener))" endpoint_name="Percent Effect" endpoint_result=17.1
compound="CCOCC(O)CN1CCN(C(=O)c2cccc(F)c2)CC1 (configuration not stated)" system_tested="Tyrosyl-tRNA synthetase, putative (Trypanosoma cruzi (strain CL Brener))" endpoint_name="Percent Effect" endpoint_result=-9.76
compound="CN(C)C(=O)N1CCOCC2(CCN(c3ccccn3)C2)C1 (configuration not stated)" system_tested="Tyrosyl-tRNA synthetase, putative (Trypanosoma cruzi (strain CL Brener))" endpoint_name="Percent Effect" endpoint_result=1.24
compound=Cc1nc[nH]c1CN1C[C@@H]2CC[C@H](C1)N(C(=O)CCNS(C)(=O)=O)C2 system_tested="Tyrosyl-tRNA synthetase, putative (Trypanosoma cruzi (strain CL Brener))" endpoint_name="Percent Effect" endpoint_result=7.69
compound=O=c1ccc(-c2cccs2)nn1CN1CCCCCC1 system_tested="Tyrosyl-tRNA synthetase, putative (Trypanosoma cruzi (strain CL Brener))" endpoint_name="Percent Effect" endpoint_result=10.3
compound="Cc1nc(CN(C)C2CCN(Cc3ccno3)C2)no1 (configuration not stated)" system_tested="Tyrosyl-tRNA synthetase, putative (Trypanosoma cruzi (strain CL Brener))" endpoint_name="Percent Effect" endpoint_result=18.8
compound=CC(C)(NCC(=O)NCCC#N)c1ccc2c(c1)OCCO2 system_tested="Tyrosyl-tRNA synthetase, putative (Trypanosoma cruzi (strain CL Brener))" endpoint_name="Percent Effect" endpoint_result=23.5
compound="Cc1nc(C2CCCN(C(=O)c3scnc3C)C2)no1 (configuration not stated)" system_tested="Tyrosyl-tRNA synthetase, putative (Trypanosoma cruzi (strain CL Brener))" endpoint_name="Percent Effect" endpoint_result=2.56
compound=Cc1ccc(-c2cc(CNC(=O)N3CCC(CO)CC3)on2)cc1 system_tested="Tyrosyl-tRNA synthetase, putative (Trypanosoma cruzi (strain CL Brener))" endpoint_name="Percent Effect" endpoint_result=13.4
